tested-system: UniProt Q14524
Sequence (Q14524 whole entry): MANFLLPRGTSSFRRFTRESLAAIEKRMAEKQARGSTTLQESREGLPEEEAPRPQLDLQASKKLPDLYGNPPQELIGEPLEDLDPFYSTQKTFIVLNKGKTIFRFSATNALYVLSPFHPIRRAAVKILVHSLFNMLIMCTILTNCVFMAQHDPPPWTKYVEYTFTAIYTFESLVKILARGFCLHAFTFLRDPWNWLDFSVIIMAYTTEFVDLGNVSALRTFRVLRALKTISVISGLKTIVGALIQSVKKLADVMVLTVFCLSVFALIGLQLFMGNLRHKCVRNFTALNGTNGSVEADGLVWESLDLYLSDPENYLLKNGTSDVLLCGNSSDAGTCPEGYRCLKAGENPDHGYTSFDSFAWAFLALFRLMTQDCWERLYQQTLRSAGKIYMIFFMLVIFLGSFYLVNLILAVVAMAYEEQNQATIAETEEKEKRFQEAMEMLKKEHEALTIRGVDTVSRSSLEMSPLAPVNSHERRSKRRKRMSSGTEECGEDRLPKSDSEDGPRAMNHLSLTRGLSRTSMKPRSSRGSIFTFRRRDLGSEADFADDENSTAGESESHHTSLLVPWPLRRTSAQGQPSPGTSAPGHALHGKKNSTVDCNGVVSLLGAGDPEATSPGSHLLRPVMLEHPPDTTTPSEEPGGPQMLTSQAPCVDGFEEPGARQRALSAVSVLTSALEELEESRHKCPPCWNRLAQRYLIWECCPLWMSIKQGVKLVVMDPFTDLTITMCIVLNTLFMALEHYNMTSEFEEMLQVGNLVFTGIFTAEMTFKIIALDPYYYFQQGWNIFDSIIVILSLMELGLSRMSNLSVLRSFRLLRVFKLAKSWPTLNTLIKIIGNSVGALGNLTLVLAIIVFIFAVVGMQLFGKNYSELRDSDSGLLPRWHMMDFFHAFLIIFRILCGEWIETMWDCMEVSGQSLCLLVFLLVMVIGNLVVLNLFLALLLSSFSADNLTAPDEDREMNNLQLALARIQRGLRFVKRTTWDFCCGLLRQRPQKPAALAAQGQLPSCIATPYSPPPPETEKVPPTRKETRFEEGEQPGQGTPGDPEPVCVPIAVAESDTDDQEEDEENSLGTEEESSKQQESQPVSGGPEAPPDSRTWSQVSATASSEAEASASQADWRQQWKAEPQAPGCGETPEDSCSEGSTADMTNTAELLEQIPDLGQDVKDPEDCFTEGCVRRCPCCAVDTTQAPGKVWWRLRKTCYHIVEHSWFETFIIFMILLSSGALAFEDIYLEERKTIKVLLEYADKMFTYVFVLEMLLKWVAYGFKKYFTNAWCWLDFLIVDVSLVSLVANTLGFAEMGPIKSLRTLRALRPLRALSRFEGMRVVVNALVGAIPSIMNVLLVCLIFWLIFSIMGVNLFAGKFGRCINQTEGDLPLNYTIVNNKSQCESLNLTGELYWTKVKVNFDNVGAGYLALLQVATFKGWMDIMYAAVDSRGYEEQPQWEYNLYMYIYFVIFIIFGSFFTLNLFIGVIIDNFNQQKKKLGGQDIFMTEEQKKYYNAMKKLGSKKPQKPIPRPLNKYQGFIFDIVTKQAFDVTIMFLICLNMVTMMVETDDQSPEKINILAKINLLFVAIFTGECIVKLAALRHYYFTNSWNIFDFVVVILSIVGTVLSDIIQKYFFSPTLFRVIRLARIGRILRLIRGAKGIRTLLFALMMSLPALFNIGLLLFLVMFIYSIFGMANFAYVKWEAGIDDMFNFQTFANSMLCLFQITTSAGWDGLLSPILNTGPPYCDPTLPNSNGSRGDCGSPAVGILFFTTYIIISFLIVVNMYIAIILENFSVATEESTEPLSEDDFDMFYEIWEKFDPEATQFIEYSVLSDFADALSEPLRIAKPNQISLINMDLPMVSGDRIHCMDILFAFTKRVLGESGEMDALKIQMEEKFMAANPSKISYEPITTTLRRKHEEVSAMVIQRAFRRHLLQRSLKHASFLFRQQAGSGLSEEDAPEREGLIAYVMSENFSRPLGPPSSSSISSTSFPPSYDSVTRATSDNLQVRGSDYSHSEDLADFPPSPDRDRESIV
assay-details: Late INa screening assay (QPatch whole cell patch clamp, Tefluthrin-induced late current)
Format: cell-based
cond: 1 uM; HEK293 hNav1.5; percent block of late INa
Procedure: The cardiac late sodium current (Late INa) and peak sodium current (Peak INa) assays are performed on an automated electrophysiology platform, QPatch 16X or QPatch HT (Sophion Bioscience, Copenhagen, Denmark) using the whole cell patch clamp technique to measure currents through the cell membrane. […] Results are reported as percent block of late INa and results were analyzed by incorporating rundown correction for the Late INa.
readout-name: inhibition at 1 µM

Example cases with answers are listed next.
COc1cc(-c2ccc(OC(F)(F)F)cc2C)cc2c(OCc3ncccn3)noc12: 41.3%
FC(F)(F)Oc1ccc(-c2ccc3onc(Oc4ncccn4)c3c2)cc1: 53.7%

Which measured inhibition at 1 µM value corresponds to OCc1cn(-c2noc3ccc(-c4ccc(OC(F)(F)F)cc4)cc23)cn1 ?
48.4%

Which measured inhibition at 1 µM value corresponds to Nc1noc2ccc(-c3ccc(OC(F)(F)F)cc3)cc12 ?
45.4%

Which measured inhibition at 1 µM value corresponds to N#CCOc1noc2ccc(-c3ccc(OC(F)(F)F)cc3)cc12 ?
38.9%

Which measured inhibition at 1 µM value corresponds to Cc1nc(C)n(CCOc2noc3ccc(-c4ccc(OC(F)(F)F)cc4)cc23)n1 ?
55.2%

Which measured inhibition at 1 µM value corresponds to Fc1cccnc1COc1noc2ccc(-c3ccc(OC(F)(F)F)cc3)cc12 ?
58.7%

Which measured inhibition at 1 µM value corresponds to Cc1cccc(CNc2noc3ccc(-c4ccc(OC(F)(F)F)cc4)cc23)n1 ?
67.5%

Which measured inhibition at 1 µM value corresponds to Fc1cc(C(F)(F)F)ccc1-c1ccc2onc(OCc3ncccn3)c2c1 ?
51.1%

Which measured inhibition at 1 µM value corresponds to Cc1nnc(COc2noc3ccc(-c4ccc(OC(F)(F)F)cc4)cc23)o1 ?
72.3%

Which measured inhibition at 1 µM value corresponds to FC(F)(F)Oc1ccc(-c2ccc3onc(OCCn4ccnc4)c3c2)cc1 ?
59.9%

Which measured inhibition at 1 µM value corresponds to COc1cc2onc(OCc3ncccn3)c2cc1-c1ccc(Cl)c(F)c1 ?
35.1%

Which measured inhibition at 1 µM value corresponds to Fc1cc2onc(OCc3ncccn3)c2cc1-c1ccc(OC(F)(F)F)cc1 ?
43.9%

Which measured inhibition at 1 µM value corresponds to Cc1cnc(COc2noc3ccc(-c4ccc(OC(F)(F)F)cc4)cc23)cn1 ?
66.2%

Which measured inhibition at 1 µM value corresponds to Fc1cc(-c2ccc(OC(F)(F)F)cc2)cc2c(OCc3ncccn3)noc12 ?
45.9%

Which measured inhibition at 1 µM value corresponds to FC(F)(F)COc1ccc(-c2ccc3onc(OCc4ncccn4)c3c2)cn1 ?
48.8%

Which measured inhibition at 1 µM value corresponds to Cc1cc(-c2ccc3onc(OCc4ncccn4)c3c2)ccc1OC(F)(F)F ?
47.5%

Which measured inhibition at 1 µM value corresponds to Cc1cc(-c2cc(C)c3onc(OCc4ncccn4)c3c2)ccc1OC(F)(F)F ?
38.2%

Which measured inhibition at 1 µM value corresponds to Cc1cc(OC(F)(F)F)ccc1-c1cc2c(OCc3ncccn3)noc2cc1F ?
21%

Which measured inhibition at 1 µM value corresponds to FC1(F)Oc2ccc(-c3ccc4onc(OCc5ncccn5)c4c3)cc2O1 ?
42.5%

Which measured inhibition at 1 µM value corresponds to FC(F)(F)Oc1ccc(-c2ccc3onc(OCC4CCO4)c3c2)cc1 (stereo not drawn) ?
57.3%
